Hey, just so you know, these numbers are from patent US20260132129A1.

# assay target: PI3Kα H1047R (T47D cells) (Homo sapiens, UniProt P42336, H1047R)
# Construct: endogenous in cells; host or cells: T47D cells
# Sequence (P42336 whole entry H1047R): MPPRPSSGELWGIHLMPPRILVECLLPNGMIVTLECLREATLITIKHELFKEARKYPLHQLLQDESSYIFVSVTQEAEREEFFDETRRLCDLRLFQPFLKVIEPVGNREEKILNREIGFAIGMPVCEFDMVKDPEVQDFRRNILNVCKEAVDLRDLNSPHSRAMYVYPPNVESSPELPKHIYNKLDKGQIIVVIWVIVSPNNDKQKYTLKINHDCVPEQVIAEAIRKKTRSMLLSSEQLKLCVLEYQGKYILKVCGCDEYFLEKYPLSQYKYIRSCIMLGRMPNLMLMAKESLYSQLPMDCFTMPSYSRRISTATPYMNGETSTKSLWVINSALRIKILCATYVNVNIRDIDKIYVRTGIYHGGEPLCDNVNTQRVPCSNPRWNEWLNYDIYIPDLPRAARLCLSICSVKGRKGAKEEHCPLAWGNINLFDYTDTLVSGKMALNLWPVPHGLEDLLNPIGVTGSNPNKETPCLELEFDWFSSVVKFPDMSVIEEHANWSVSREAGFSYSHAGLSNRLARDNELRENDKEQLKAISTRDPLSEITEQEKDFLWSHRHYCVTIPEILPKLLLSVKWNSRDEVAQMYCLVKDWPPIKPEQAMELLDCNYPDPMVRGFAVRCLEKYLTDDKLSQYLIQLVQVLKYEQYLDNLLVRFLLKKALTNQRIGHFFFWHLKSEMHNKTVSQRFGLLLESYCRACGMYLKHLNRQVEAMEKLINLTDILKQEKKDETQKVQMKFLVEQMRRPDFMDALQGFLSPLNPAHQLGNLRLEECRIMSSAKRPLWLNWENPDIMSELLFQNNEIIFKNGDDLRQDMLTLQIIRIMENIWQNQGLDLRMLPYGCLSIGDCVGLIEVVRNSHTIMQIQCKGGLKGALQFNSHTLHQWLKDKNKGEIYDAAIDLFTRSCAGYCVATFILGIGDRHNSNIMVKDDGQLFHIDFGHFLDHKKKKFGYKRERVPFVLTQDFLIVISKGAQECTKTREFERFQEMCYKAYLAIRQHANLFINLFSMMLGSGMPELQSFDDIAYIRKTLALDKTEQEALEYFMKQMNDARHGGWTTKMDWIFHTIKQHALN
# Sequence (P27986 whole entry partner): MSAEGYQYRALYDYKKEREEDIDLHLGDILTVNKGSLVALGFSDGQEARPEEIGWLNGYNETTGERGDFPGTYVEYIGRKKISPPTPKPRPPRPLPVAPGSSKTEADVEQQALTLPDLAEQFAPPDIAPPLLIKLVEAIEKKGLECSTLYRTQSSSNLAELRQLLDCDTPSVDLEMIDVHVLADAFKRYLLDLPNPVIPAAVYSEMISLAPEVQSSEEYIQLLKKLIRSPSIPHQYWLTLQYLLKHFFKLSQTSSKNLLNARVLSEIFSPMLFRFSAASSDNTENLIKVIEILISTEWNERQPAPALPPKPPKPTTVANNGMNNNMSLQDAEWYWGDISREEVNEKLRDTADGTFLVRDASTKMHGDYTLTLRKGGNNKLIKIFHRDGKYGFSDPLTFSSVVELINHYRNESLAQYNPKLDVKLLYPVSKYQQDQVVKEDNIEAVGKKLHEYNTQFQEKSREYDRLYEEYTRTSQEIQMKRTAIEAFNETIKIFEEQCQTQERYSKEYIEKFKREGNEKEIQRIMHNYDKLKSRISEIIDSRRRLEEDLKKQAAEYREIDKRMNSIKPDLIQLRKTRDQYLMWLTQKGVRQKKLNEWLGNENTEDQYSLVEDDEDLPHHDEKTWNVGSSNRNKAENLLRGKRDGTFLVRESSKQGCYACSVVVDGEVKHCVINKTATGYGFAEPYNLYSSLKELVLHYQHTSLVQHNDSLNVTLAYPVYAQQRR
# test description: PI3Kα cellular assay: pAKT HTRF in T47D cells after EGF stimulation
# Format: cell-based
# condition label: selectivity T47D (H1047R) over SKBR3 (WT), pAKT HTRF
reported endpoint: T47D pAKT S473 HTRF IC50 (H1047R): T47D (H1047R) selectivity over SKBR3 (WT)

1) Cc1cc([C@H](C)Nc2ccccc2C(=O)O)c2nc(C3CCCOC3)c(C#N)c(=O)n2c1 (stereo partly drawn) [Compound 1364]; C (C denotes ≤5-fold)
2) COCCNc1cc(=O)n2cc(C)cc(C(C)Nc3ccccc3C(=O)O)c2n1 (stereo not drawn) [Compound 313]; C (C denotes ≤5-fold)
3) Cc1cc([C@@H](C)NC2=C(CC(=O)O)C=CCC2)c2nc(N3CCSCC3)cc(=O)n2c1 [Compound 285]; C (C denotes ≤5-fold)
4) Cc1cc([C@H](C)Nc2ccccc2C(=O)O)c2nc(N3CCN(C(=O)CN)CC3)cc(=O)n2c1 [Compound 528]; C (C denotes ≤5-fold)
5) Cc1cc([C@@H](C)Nc2ccccc2)c2nc(N(C)Cc3ccccc3)c(C)c(=O)n2c1 [Compound 1163]; A (A denotes >20-fold)

// each compound listed below needs its T47D pAKT S473 HTRF IC50 (H1047R): T47D (H1047R) selectivity over SKBR3 (WT)
1. CONC(=O)c1ccc(-c2cc(=O)n3cc(C)cc([C@H](C)Nc4ccccc4C(=O)O)c3n2)cc1 [Compound 486]
2. Cc1cc([C@@H](C)Nc2ccccc2C(=O)O)c2nc(-c3ccc(C4CCCC(C)C4)cc3)c(C)c(=O)n2c1 (stereo partly drawn) [Compound 1338]
3. Cc1cc([C@H](C)Nc2ccccc2C(=O)O)c2nc(-c3cccc(F)c3)c(C(C)C)c(=O)n2c1 [Compound 1278]
4. Cc1cc([C@@H](C)Nc2ccccc2C(=O)O)c2nc(N3CCN(C)CC3)cc(=O)n2c1 [Compound 394]
5. Cc1cc([C@H](C)Nc2ccccc2C(=O)O)c2nc(N3CCC(C)CC3)cc(=O)n2c1 [Compound 360]
6. Cc1cc([C@H](C)Nc2ccccc2C(=O)O)c2nc(N3CCCCC3)cc(=O)n2c1 [Compound 8]

*A*
A (A denotes >20-fold)
C (C denotes ≤5-fold)
C (C denotes ≤5-fold)
C (C denotes ≤5-fold)
C (C denotes ≤5-fold)
C (C denotes ≤5-fold)

* * *

# assay target: PI3Kα H1047R (T47D cells) (Homo sapiens, UniProt P42336, H1047R)
# Construct: endogenous in cells; host or cells: T47D cells
# test description: PI3Kα cellular assay: pAKT HTRF in T47D cells after EGF stimulation
# Format: cell-based
# condition label: T47D cells (PI3Kα H1047R), pAKT S473 HTRF, 1 hr compound, 20 ng/ml EGF 10 min
# Experimental: SKBR3 or T47D cells are seeded in DMEM containing 10% FBS at 25k cells/well into 96-well cell culture format. […] 384 well plate is left overnight at room temperature before reading HTRF on an Envision plate reader. ND denotes value not determined with that assay for the specified compound; • for T47D (H1047R) selectivity over SKBR3 (WT): A denotes >20-fold; B denotes 20-fold≥value>5-fold; C denotes ≤5-fold. […] ND denotes value not determined with that assay for the specified compound.
reported endpoint: IC50

Look over these answered cases.
1) CC1=CN2C(=O)CC(N3CCOCC3)N=C2C(C(C)Nc2ccccc2)=C1 (stereo not shown); > 2000 nM
2) Cc1cc([C@@H](C)Nc2cnncc2C(=O)O)c2nc(N3CCOCC3)cc(=O)n2c1; > 2000 nM
3) CC[C@H](Nc1ccccc1C(=O)O)c1cc(C)cn2c(=O)cc(N3CCOCC3)nc12; 500 to 2000 nM

// input: 4 compounds below; output: IC50 for each
1. Cc1cc([C@H](C)Nc2ccccc2)c2nc(-c3cnc4[nH]nc(-c5ccccc5)c4c3)cc(=O)n2c1
2. Cc1cc(C(C)Nc2ccccc2C(=O)O)c2nc(N3CCN(CCC(N)=O)CC3)cc(=O)n2c1 (stereo not shown) [Compound 530]
3. Cc1cc([C@@H](C)Nc2ccccc2C(=O)O)c2nc(-c3ccc4[nH]cnc4c3)cc(=O)n2c1
4. Cc1cc(C(C)Nc2ccccc2C(N)=O)c2nc(-c3ccncc3)cc(=O)n2c1 (single isomer, unassigned) [Compound 439]

*A*
1: > 2000 nM; 2: > 2000 nM; 3: 100 to 500 nM; 4: > 2000 nM

* * *

# assay target: PI3Kα H1047R (T47D cells) (Homo sapiens, UniProt P42336, H1047R)
# Construct: endogenous in cells; host or cells: T47D cells
# test description: PI3Kα cellular assay: pAKT HTRF in T47D cells after EGF stimulation
# Type: cell-based
# condition label: selectivity of T47D (H1047R) over SKBR3 (WT) pAKT IC50
reported endpoint: T47D pAKT S473 HTRF IC50 (H1047R): T47D (H1047R) selectivity over SKBR3 (WT)

// solved cases for T47D pAKT S473 HTRF IC50 (H1047R): T47D (H1047R) selectivity over SKBR3 (WT) follow
1) Cc1cc([C@H](C)Nc2ccccc2C(=O)O)c2nc(-c3ccc4c(C)nn(C)c4c3)cc(=O)n2c1; C (C denotes ≤5-fold)
2) Cc1cc([C@@H](C)Nc2cc[nH]c2-c2ccnnc2)c2nc(N3Cc4ccccc4C3)c(C)c(=O)n2c1; C (C denotes ≤5-fold)
3) Cc1cc([C@@H](C)Nc2ccccc2C(=O)O)c2nc(-c3ccc4c(c3)c(C3CC3)nn4C)cc(=O)n2c1; A (A denotes >20-fold)
4) Cc1cc([C@@H](C)Nc2ccccc2C(=O)C(F)(F)F)c2nc(N(C)Cc3ccccc3)c(C)c(=O)n2c1; C (C denotes ≤5-fold)
5) CC1=CC2C(=O)C=C([C@H]3CC[C@H](CC4CC[C@H](O)C4)CC3)N=C2C([C@H](C)Nc2ccccc2C(=O)O)=C1 (some centres unmarked); C (C denotes ≤5-fold)
6) Cc1cc(C(C)Nc2ccccc2S(N)(=O)=O)c2nc(-c3cccc(C#N)c3)c(C)c(=O)n2c1 (centres unmarked); A (A denotes >20-fold)
7) C=C(C)Nc1nn(C)c2ccc(-c3cc(=O)n4cc(C)cc([C@H](C)Nc5ccccc5C(=O)O)c4n3)cc12; A (A denotes >20-fold)
8) Cc1cc([C@@H](C)Nc2ccccc2C(=O)O)c2nc(C3Cc4ccccc4[C@@H]3C)cc(=O)n2c1 (single isomer, unassigned); A (A denotes >20-fold)
9) Cc1cc([C@H](C)Nc2cccnc2-c2ccnnc2)c2nc(N3Cc4ccccc4C3)cc(=O)n2c1; A (A denotes >20-fold)
10) C=CC(=O)Nc1ccc(C(=O)O)c(N[C@H](C)c2cc(C)cn3c(=O)cc(N4CCOCC4)nc23)c1; C (C denotes ≤5-fold)

# map each molecule to its T47D pAKT S473 HTRF IC50 (H1047R): T47D (H1047R) selectivity over SKBR3 (WT)
1. Cc1cc([C@H](C)Nc2ccccc2C(=O)O)c2nc(-c3ccc4c(c3)c(C(F)(F)F)nn4C)cc(=O)n2c1
2. Cc1cc([C@H](C)Nc2ccccc2C(=O)O)c2nc(-c3cc4c(N)nn(C)c4cc3C)c(C)c(=O)n2c1

*A*
C (C denotes ≤5-fold)
C (C denotes ≤5-fold)

Return reported T47D pAKT S473 HTRF IC50 (H1047R): T47D (H1047R) selectivity over SKBR3 (WT) values for all items listed beneath this line.
1. Cc1cc([C@@H](C)NCc2cccnn2)c2nc(N3Cc4ccccc4C3)cc(=O)n2c1
2. Cc1cc([C@@H](C)Nc2ccccc2C(=O)O)c2nc(-c3cc(C)c(F)c(C)c3)cc(=O)n2c1

*A*
1. C (C denotes ≤5-fold)
2. A (A denotes >20-fold)

* * *

# assay target: PI3Kα H1047R (T47D cells) (Homo sapiens, UniProt P42336, H1047R)
# Construct: endogenous in cells; host or cells: T47D cells
# test description: PI3Kα cellular assay: pAKT HTRF in T47D cells after EGF stimulation
# Assay type: cell-based
# condition label: T47D cells (PI3Kα H1047R), pAKT S473 HTRF, EGF stimulation
reported endpoint: IC50

Past entries and their recorded results:
1. Cc1cc(C(C)Nc2ccccc2C(=O)O)c2nc(-c3cc(F)cc(C4CC4)c3)c(C)c(=O)n2c1 (stereo not shown); < 100 nM
2. Cc1cc([C@H](C)Nc2ccccc2C(=O)O)c2ncc(Cc3ccc(F)cc3)c(=O)n2c1; > 2000 nM
3. Cc1cc(C(C)Nc2ccccc2C(=O)O)c2nc(-c3ccc4c(c3)c(N)nn4C3CC3)cc(=O)n2c1 (stereo not shown); 100 to 500 nM

// next entry
*Q* What value of IC50 has been reported for the following molecule? Cc1cc([C@@H](C)Nc2ccccc2C(=O)O)c2nc(-c3ccc(Cl)cc3F)c(C)c(=O)n2c1 [Compound 1069]
*A* < 100 nM
